Experiment: Faecal recovery after 500 mg oral bolus of 13C5-C3G
Assay type: in vivo, humans
Details: faeces, 0–6 h (only 2 participants provided voids); 500 mg oral 13C5-C3G
Method: The study was conducted at the Clinical Research and Trials Unit at the University of East Anglia according to the principles expressed in the Declaration of Helsinki and was approved by the Cambridgeshire 3 Research Ethics Committee (REC ref: 10/H0306/42) and registered at clinicaltrials.gov as NCT01106729. […]
Marks after values point to notes of the source that are not given here.
ENDPOINT LABEL: Recovery 0–6 h

Consider the worked cases shown below.
COc1ccc(C(=O)O)cc1OC1OC(C(=O)O)C(O)C(O)C1O (centres unmarked) [IsoVA-3-glucuronide] : 1.8 ^b μg
O=C(O)c1ccc(OC2OC(C(=O)O)C(O)C(O)C2O)cc1 (centres unmarked) [Benzoic acid-4-glucuronide] : 1.5 ^b μg
COc1cc(C(=O)O)ccc1OS(=O)(=O)O [VA-4-sulfate] : 0.6 ^b μg
COc1cc(C(=O)O)ccc1OC1OC(C(=O)O)C(O)C(O)C1O (centres unmarked) [VA-4-glucuronide] : 3.6 ^b μg

Requested field: Recovery 0–6 h. Item: O=C(O)Cc1ccc(O)c(O)c1 [3,4-Dihydroxyphenylacetic acid]
2.0 ^b μg

* * *

Test: Serum pharmacokinetics after 500 mg oral bolus of 13C5-C3G (HPLC-ESI-MS/MS, non-compartmental analysis)
Assay type: in vivo, humans
Settings: serum; single 500 mg oral 13C5-C3G, healthy men; mean ± SEM of participants in whom detected
ENDPOINT LABEL: Cmax (nM)

O=C(O)c1ccc(O)c(O)c1 : 146
O=C(O)c1ccc(OC2OC(C(=O)O)C(O)C(O)C2O)c(O)c1 (centres unmarked) [PCA-4-glucuronide] : 68
COc1ccc(C(=O)O)cc1OC1OC(C(=O)O)C(O)C(O)C1O (centres unmarked) [IsoVA-3-glucuronide] : 35

I: COc1cc(C(=O)O)ccc1OC1OC(C(=O)O)C(O)C(O)C1O (centres unmarked) [VA-4-glucuronide]
II: COc1ccc(C(=O)O)cc1O
Which entry has a larger number for Cmax, I or II ? Could you answer with the label of the item you picked?
II
(II: 195 nM, I: 24 nM)

* * *

Experiment: Urinary elimination/recovery after 500 mg oral bolus of 13C5-C3G
Type: in vivo, humans
Settings: male, human, urine, po, 500 mg, urine collection interval; single 500 mg oral 13C5-C3G; read-out: Time at maximum concentration
In this section we review reported Tmax values for a set of compounds.

Consider the worked cases shown below.
COc1cc(C(=O)O)ccc1O : 1 to 2 h
O=Cc1c(O)cc(O)cc1O : 6 to 24 h
COC(=O)c1ccc(O)c(O)c1 [Methyl-3,4-dihydroxybenzoate] : 3 to 4 h

Requested field: Tmax. Item: O=Cc1ccc(O)c(O)c1 [3,4-Dihydroxybenzaldehyde]
0 to 1 h

What do you have for COc1cc(-c2[o+]c3cc(O)cc(O)c3cc2OC2OC(CO)C(O)C(O)C2O)ccc1O (stereo not drawn) [Peonidin-3-glucoside] ?
1 to 2 h

What do you have for O=C(O)c1ccc(OC2OC(C(=O)O)C(O)C(O)C2O)cc1 (stereo not drawn) [Benzoic acid-4-glucuronide] ?
4 to 5 h

What do you have for O=C(O)CNC(=O)c1ccccc1 ?
6 to 24 h

What do you have for O=C(O)Cc1ccc(O)cc1 [4-Hydroxyphenylacetic acid] ?
4 to 5 h

What do you have for OCC1OC(Oc2cc3c(O)cc(O)cc3[o+]c2-c2ccc(O)c(O)c2)C(O)C(O)C1O (stereo not drawn) [Cyanidin-3-glucoside, 6,8,10,3′,5′-^13C5-cyanidin-3-glucoside] ?
1 to 2 h

* * *

Assay: Serum pharmacokinetics after 500 mg oral bolus of 13C5-C3G (HPLC-ESI-MS/MS, non-compartmental analysis)
Type: in vivo, humans
Settings: male, human, serum, po, 500 mg, serum elimination half-life; single 500 mg oral 13C5-C3G; mean ± SEM
ENDPOINT LABEL: half-life (h)

O=C(O)CNC(=O)c1ccccc1 [Hippuric acid] : 95.6
OCC1OC(Oc2cc3c(O)cc(O)cc3[o+]c2-c2ccc(O)c(O)c2)C(O)C(O)C1O (centres unmarked) [Cyanidin-3-glucoside, 6,8,10,3′,5′-^13C5-cyanidin-3-glucoside] : 0.4
O=Cc1ccc(O)cc1 [4-Hydroxybenzaldehyde] : 17.9
O=C(O)c1ccc(O)c(OC2OC(C(=O)O)C(O)C(O)C2O)c1 (centres unmarked) [PCA-3-glucuronide] : 18
O=C(O)c1ccc(OC2OC(C(=O)O)C(O)C(O)C2O)cc1 (centres unmarked) [Benzoic acid-4-glucuronide] : 17.1

A: COC(=O)c1ccc(O)c(O)c1 [Methyl-3,4-dihydroxybenzoate]
B: COc1cc(C(=O)O)ccc1O [Vanillic acid (VA), Vanillic acid]
Given A and given B , which shows the smaller recorded half-life? Could you answer with the label of the item you picked?
B

* * *

Experiment: Urinary elimination/recovery after 500 mg oral bolus of 13C5-C3G
Assay type: in vivo, humans
Conditions: male, human, urine, po, 500 mg, urine collection interval; single 500 mg oral 13C5-C3G; read-out: Time at maximum concentration
In this section we review reported Tmax values for a set of molecules.

O=C(O)c1ccc(O)c(O)c1 : 1 to 2 h
O=Cc1ccc(O)cc1 [4-Hydroxybenzaldehyde] : 5 to 6 h
COc1ccc(C(=O)O)c(O)c1 [2-Hydroxy-4-methoxybenzoic acid] : 3 to 4 h

Requested field: Tmax. Item: O=C(O)c1ccc(O)cc1
1 to 2 h

What do you have for O=C(O)c1ccc(O)c(OC2OC(C(=O)O)C(O)C(O)C2O)c1 (stereo not drawn) [PCA-3-glucuronide] ?
1 to 2 h

What do you have for O=C(O)Cc1ccc(O)c(O)c1 [3,4-Dihydroxyphenylacetic acid] ?
24 to 48 h

* * *

Assay: Faecal recovery after 500 mg oral bolus of 13C5-C3G
Type: in vivo, humans
Conditions: faeces, 24–48 h; 500 mg oral 13C5-C3G; mean ± SEM
Marks after values point to notes of the source that are not given here.
ENDPOINT LABEL: Recovery 24–48 h

OCC1OC(Oc2cc3c(O)cc(O)cc3[o+]c2-c2ccc(O)c(O)c2)C(O)C(O)C1O (stereo not drawn) [Cyanidin-3-glucoside, 6,8,10,3′,5′-^13C5-cyanidin-3-glucoside] : 19.6 ^b μg

Requested field: Recovery 24–48 h. Item: O=C(O)Cc1ccc(O)cc1 [4-Hydroxyphenylacetic acid]
55.4 ^b μg

* * *

Experiment: Serum pharmacokinetics after 500 mg oral bolus of 13C5-C3G (HPLC-ESI-MS/MS, non-compartmental analysis)
Format: in vivo, humans
Details: serum; single 500 mg oral 13C5-C3G; mean ± SEM
Protocol: A detailed description of the clinical design was previously published ([Czank et al., 2013]). […] Serum, urine and faecal samples were extracted by SPE and analysed by HPLC-ESI-MS/MS as recently described ([Czank et al., 2013]). […] Pharmacokinetic modelling of metabolites in the serum was performed with the PKSolver ‘add-on’ for Excel 2010 (Microsoft, […], USA) ([Zhang et al., 2010]) using non-compartmental analysis with the AUC calculated using the trapezoidal rule. […]
ENDPOINT LABEL: Tmax (h)

Consider the worked cases shown below.
COc1ccc(C(=O)O)cc1OC1OC(C(=O)O)C(O)C(O)C1O (stereo not drawn) [IsoVA-3-glucuronide] : 4.3
COc1cc(C(=O)O)ccc1OC1OC(C(=O)O)C(O)C(O)C1O (stereo not drawn) [VA-4-glucuronide] : 4.8

a: O=C(O)CNC(=O)c1ccccc1
b: O=C(O)c1ccc(OC2OC(C(=O)O)C(O)C(O)C2O)c(O)c1 (stereo not drawn) [PCA-4-glucuronide]
c: COc1ccc(C(=O)O)cc1O
d: COc1cc(/C=C/C(=O)O)ccc1O
Ordering criterion: Tmax; begin with the maximum. # format: label list in the order the request specifies
a, d, b, c

* * *

Assay: Urinary elimination/recovery after 500 mg oral bolus of 13C5-C3G
Assay type: in vivo, humans
Details: urine; single 500 mg oral 13C5-C3G; mean ± SEM
ENDPOINT LABEL: Maximum concentration (nM)

O=C(O)Cc1ccc(O)cc1 [4-Hydroxyphenylacetic acid] : 391
O=C(O)c1ccc(O)c(OC2OC(C(=O)O)C(O)C(O)C2O)c1 (stereo not shown) [PCA-3-glucuronide] : 301

P: COc1cc(-c2[o+]c3cc(O)cc(O)c3cc2OC2OC(CO)C(O)C(O)C2O)ccc1O (stereo not shown) [Peonidin-3-glucoside]
Q: COc1cc(C(=O)O)ccc1O
Given P and given Q , which shows the smaller recorded Maximum concentration? Could you answer with the label of the item you picked?
P
(P: 76 nM, Q: 3412 nM)

* * *

Experiment: Serum pharmacokinetics after 500 mg oral bolus of 13C5-C3G (HPLC-ESI-MS/MS, non-compartmental analysis)
Assay type: in vivo, humans
Conditions: male, human, serum, po, 500 mg, serum; single 500 mg oral 13C5-C3G; mean ± SEM; read-out: tmax
ENDPOINT LABEL: Tmax (h)

O=C(O)c1ccc(O)c(O)c1 : 3.3

a: OCC1OC(Oc2cc3c(O)cc(O)cc3[o+]c2-c2ccc(O)c(O)c2)C(O)C(O)C1O (centres unmarked) [Cyanidin-3-glucoside, 6,8,10,3′,5′-^13C5-cyanidin-3-glucoside]
b: COC(=O)c1ccc(O)c(O)c1 [Methyl-3,4-dihydroxybenzoate]
Given a and given b , which shows the smaller recorded Tmax? Could you answer with the label of the item you picked?
a
